Listed next: entries and their corresponding Chemotaxis IC50 (nM); 0.2 nM rhIP-10.
- experimentalSystem: T1, recombinant human IP-10 (hIP-10) (human, UniProt P02778 22-98)
- T1 sequence (looked up): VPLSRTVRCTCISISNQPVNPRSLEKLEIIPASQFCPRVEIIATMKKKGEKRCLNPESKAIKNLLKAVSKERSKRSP
- assaySummary: cell-based or functional assay
Numeric answer only, unit nM assumed.

// worked examples, Chemotaxis IC50 (nM); 0.2 nM rhIP-10 included
• CF1H1R3P3_G11, IgG1 format (antibody, V domains shown) VH: QVQLVESGGGVVQPGRSLRLSCAASGFTFSNSGIHWVRQAPGKGLEWVAVISYDGSNKFYADSVKGRFTISRDNSKNTLYLQMNSLRAEDTAVYYCAKLRDNGEYLDYWGQGTLVTVSS VL: NFMLTQPHSVSESPGKTVTISCTGSGGSIDRNYVQWYQQRPGSSPTTVIYEDNQRPSGVPDRFSGSIDSSSNSASLTISGLKTEDEADYYCQSYDPLPVWVFGGGTKLTVL = 0.2
• CF1N1R3P4_C7, IgG1 format (antibody, V domains shown) VH: QVQLVESGGGVVQPGRSLRLSCAASGFTFSNSGIHWVRQAPGKGLEWVAVISYDGSNKFYADSVKGRFTISRDNSKNTLYLQMNSLRAEDTAVYYCAKLRDNAEYTDYWGQGTLVTVSS VL: NFMLTQPHSVSESPGKTVTISCTGSGGSIDRNYVQWYQQRPGSSPTTVIYEDNQRPSGVPDRFSGSIDSSSNSASLTISGLKTEDEADYYCQSYDPLPVWVFGGGTKLTVL = 0.19
• CF1H1R3P4_B5, IgG1 format (antibody, V domains shown) VH: QVQLVESGGGVVQPGRSLRLSCAASGFTFSNSGIHWVRQAPGKGLEWVAVISYDGSNKFYADSVKGRFTISRDNSKNTLYLQMNSLRAEDTAVYYCAKLRDNGEYLDYWGQGTLVTVSS VL: NFMLTQPHSVSESPGKTVTISCTGSGGSIDRNYVQWYQQRPGSSPTTVIYEDNQRPSGVPDRFSGSIDSSSNSASLTISGLKTEDEADYYCQSYVETPEWVFGGGTKLTVL = 0.42

Looking up NI-0801, IgG1 format (antibody, V domains shown, Claims 7 and 21 swap the heavy and light chain numbers) VH: QVQLVESGGGVVQPGRSLRLSCAASGFTFSNSGIHWVRQAPGKGLEWVAVISYDGSNKYYADSVKGRFTISRDNSKNTLYLQMNSLRAEDTAVYYCARLRDNAEYTDYWGQGTLVTVSS VL: NFMLTQPHSVSESPGKTVTISCTGSGGSIASNYVQWYQQRPGSSPTTVIYEDNQRPSGVPDRFSGSIDSSSNSASLTISGLKTEDEADYYCQSYDPLPVWVFGGGTKLTVLG , I see its Chemotaxis IC50 (nM); 0.2 nM rhIP-10 listed as 0.24

Looking up CF1A11R3P3_F3, IgG1 format (antibody, V domains shown) VH: QVQLVESGGGVVQPGRSLRLSCAASGFTFSNSGIHWVRQAPGKGLEWVAVISYDGSNKFYADSVKGRFTISRDNSKNTLYLQMNSLRAEDTAVYYCAKLRDNGEYLDYWGQGTLVTVSS VL: NFMLTQPHSVSESPGKTVTISCTGSGGSIDRNYVQWYQQRPGSAPITVIYEDNQRPSGVPDRFSGSIDSSSNSASLTISGLRTDDEADYYCQSYDSINLWVFGGGTKVTVL , I see its Chemotaxis IC50 (nM); 0.2 nM rhIP-10 listed as 0.69
